test-protocol: melting temperature; melt of duplexes
condition-description: sodium 0.0675 M; strand 1 µM
experimental-endpoint: Tm (°C)
Note: unit °C is implicit; provide only the numeric part.

Some solved cases for reference:
- substance: "CGACGTGCCCTATGTGCTG+CAGCACATCCAGCACGTCG ((((((((...((((((((+))))))))...))))))))"
  Tm (°C): 47.7
- substance: "CGACGTGCAATATGTGCTG+CAGCACATCAAGCACGTCG ((((((((...((((((((+))))))))...))))))))"
  Tm (°C): 48
- substance: "CGACGTGCGTCATGTGCTG+CAGCACATGAAGCACGTCG ((((((((.((((((((((+)))))))))).))))))))"
  Tm (°C): 59.4

Looking up CGACGTGCTAAATGTGCTG+CAGCACATCGAGCACGTCG (((((((((..((((((((+))))))))..))))))))) , I found its Tm recorded as 51.8
